# protocolDescription: Plasma pharmacokinetics in patients (LC-MS/MS, noncompartmental analysis)
# Assay type: in vivo, human
# conditionDetails: human, plasma, po, 8.4 mg, 8.4 mg oral, day 1; read-out: Cmax Geometric mean (%CV)
recordedMetric: Cmax
State the value with its unit after it.

Summary for this compound, Cn1c(=O)c(F)c(Nc2ccc(I)cc2F)c2c(=O)n(C[C@@H](O)CO)cnc21 : Cmax is 28.4 ng/mL

====

# protocolDescription: Plasma pharmacokinetics in patients (LC-MS/MS, noncompartmental analysis)
# Format: in vivo, human
# conditionDetails: human, plasma, po, 4.4 mg, 4.4 mg oral, day 1; read-out: Tmax Median (range)
recordedMetric: Tmax (h)
Kindly answer with a numeric value in h, unit omitted.

Summary for this compound, Cn1c(=O)c(F)c(Nc2ccc(I)cc2F)c2c(=O)n(C[C@@H](O)CO)cnc21 : Tmax is 3.5

====

# protocolDescription: Plasma pharmacokinetics in patients (LC-MS/MS, noncompartmental analysis)
# Assay type: in vivo, human
# conditionDetails: human, plasma, po, 22 mg, 22 mg oral, day 21; read-out: Tmax Median (range)
recordedMetric: Tmax (h)
Kindly answer with a numeric value in h, unit omitted.

Summary for this compound, Cn1c(=O)c(F)c(Nc2ccc(I)cc2F)c2c(=O)n(C[C@@H](O)CO)cnc21 [TAK-733] : Tmax is 1.05

====

# protocolDescription: Plasma pharmacokinetics in patients (LC-MS/MS, noncompartmental analysis)
# Assay type: in vivo, human
# conditionDetails: human, plasma, po, 4.4 mg, 4.4 mg oral, day 21; read-out: Tmax Median (range)
recordedMetric: Tmax (h)
Kindly answer with a numeric value in h, unit omitted.

Summary for this compound, Cn1c(=O)c(F)c(Nc2ccc(I)cc2F)c2c(=O)n(C[C@@H](O)CO)cnc21 [TAK-733] : Tmax is 1.95

====

# protocolDescription: Plasma pharmacokinetics in patients (LC-MS/MS, noncompartmental analysis)
# Type: in vivo, human
# conditionDetails: human, plasma, po, 6 mg, 6 mg oral, day 21; read-out: Tmax Median (range)
recordedMetric: Tmax (h)
Kindly answer with a numeric value in h, unit omitted.

Summary for this compound, Cn1c(=O)c(F)c(Nc2ccc(I)cc2F)c2c(=O)n(C[C@@H](O)CO)cnc21 : Tmax is 3

====

# protocolDescription: Plasma pharmacokinetics in patients (LC-MS/MS, noncompartmental analysis)
# Type: in vivo, human
# conditionDetails: human, plasma, po, 16 mg, 16 mg oral, day 1; read-out: Cmax Geometric mean (%CV)
recordedMetric: Cmax (ng/mL)
Kindly answer with a numeric value in ng/mL, unit omitted.

Summary for this compound, Cn1c(=O)c(F)c(Nc2ccc(I)cc2F)c2c(=O)n(C[C@@H](O)CO)cnc21 [TAK-733] : Cmax is 55.7

====

# protocolDescription: Plasma pharmacokinetics in patients (LC-MS/MS, noncompartmental analysis)
# Type: in vivo, human
# conditionDetails: human, plasma, po, 22 mg, 22 mg oral, day 21; read-out: AUC(0-τ) Geometric mean (%CV)
recordedMetric: AUC

Summary for this molecule, Cn1c(=O)c(F)c(Nc2ccc(I)cc2F)c2c(=O)n(C[C@@H](O)CO)cnc21 : AUC is 1.39 µg·h/mL

====

# protocolDescription: Plasma pharmacokinetics in patients (LC-MS/MS, noncompartmental analysis)
# Format: in vivo, human
# conditionDetails: human, plasma, po, 16 mg, 16 mg oral, day 1; read-out: AUC(0-τ) Geometric mean (%CV)
recordedMetric: AUC
State the value with its unit after it.

Summary for this compound, Cn1c(=O)c(F)c(Nc2ccc(I)cc2F)c2c(=O)n(C[C@@H](O)CO)cnc21 : AUC is 640 ng·h/mL

====

# protocolDescription: Plasma pharmacokinetics in patients (LC-MS/MS, noncompartmental analysis)
# Type: in vivo, human
# conditionDetails: human, plasma, po, 6 mg, 6 mg oral, day 1; read-out: Tmax Median (range)
recordedMetric: Tmax (h)
Kindly answer with a numeric value in h, unit omitted.

Summary for this compound, Cn1c(=O)c(F)c(Nc2ccc(I)cc2F)c2c(=O)n(C[C@@H](O)CO)cnc21 [TAK-733] : Tmax is 4.5

====

# protocolDescription: Plasma pharmacokinetics in patients (LC-MS/MS, noncompartmental analysis)
# Type: in vivo, human
# conditionDetails: human, plasma, po, 8.4 mg, 8.4 mg oral, day 21; read-out: Tmax Median (range)
recordedMetric: Tmax
State the value with its unit after it.

Summary for this compound, Cn1c(=O)c(F)c(Nc2ccc(I)cc2F)c2c(=O)n(C[C@@H](O)CO)cnc21 [TAK-733] : Tmax is 3 h

====

# protocolDescription: Plasma pharmacokinetics in patients (LC-MS/MS, noncompartmental analysis)
# Type: in vivo, human
# conditionDetails: human, plasma; 22 mg oral, day 21; read-out: Terminal t½ Mean (SD) (converted)
recordedMetric: half-life (h)
Kindly answer with a numeric value in h, unit omitted.

Summary for this compound, Cn1c(=O)c(F)c(Nc2ccc(I)cc2F)c2c(=O)n(C[C@@H](O)CO)cnc21 : half-life is 38.3

====

# protocolDescription: Plasma pharmacokinetics in patients (LC-MS/MS, noncompartmental analysis)
# Type: in vivo, human
# conditionDetails: human, plasma, po, 4.4 mg, 4.4 mg oral, day 21; read-out: Cmax Geometric mean (%CV)
recordedMetric: Cmax

Summary for this molecule, Cn1c(=O)c(F)c(Nc2ccc(I)cc2F)c2c(=O)n(C[C@@H](O)CO)cnc21 : Cmax is 24.8 ng/mL

====

# protocolDescription: Urine pharmacokinetics in patients (renal clearance)
# Type: in vivo
# conditionDetails: human, oral, 16 patients, 0.2–22 mg dose range, day 21 of cycle 1
# Description: Quality controls, analyzed in duplicate over the validation range, and inter-assay precision, evaluated at each level in duplicate in six runs, met the performance and acceptance criteria. […]
recordedMetric: CL renal

Summary for this compound, Cn1c(=O)c(F)c(Nc2ccc(I)cc2F)c2c(=O)n(C[C@@H](O)CO)cnc21 : CL renal is 0.833 to 8.17 mL/min

====

# protocolDescription: Plasma pharmacokinetics in patients (LC-MS/MS, noncompartmental analysis)
# Assay type: in vivo, human
# conditionDetails: human, plasma, po, 0.2–22 mg; read-out: overall median Tmax
recordedMetric: Tmax (h)
Kindly answer with a numeric value in h, unit omitted.

Summary for this compound, Cn1c(=O)c(F)c(Nc2ccc(I)cc2F)c2c(=O)n(C[C@@H](O)CO)cnc21 : Tmax is 3

====

# protocolDescription: Plasma pharmacokinetics in patients (LC-MS/MS, noncompartmental analysis)
# Type: in vivo, human
# conditionDetails: human, plasma, po, 16 mg, 16 mg oral, day 21; read-out: AUC(0-τ) Geometric mean (%CV)
recordedMetric: AUC

Summary for this molecule, Cn1c(=O)c(F)c(Nc2ccc(I)cc2F)c2c(=O)n(C[C@@H](O)CO)cnc21 : AUC is 2150 ng·h/mL

====

# protocolDescription: Plasma pharmacokinetics in patients (LC-MS/MS, noncompartmental analysis)
# Type: in vivo, human
# conditionDetails: human, plasma, po, 6 mg, 6 mg oral, day 1; read-out: AUC(0-τ) Geometric mean (%CV)
recordedMetric: AUC (ng·h/mL)
Kindly answer with a numeric value in ng·h/mL, unit omitted.

Summary for this compound, Cn1c(=O)c(F)c(Nc2ccc(I)cc2F)c2c(=O)n(C[C@@H](O)CO)cnc21 [TAK-733] : AUC is 331

====

# protocolDescription: Plasma pharmacokinetics in patients (LC-MS/MS, noncompartmental analysis)
# Format: in vivo, human
# conditionDetails: human, plasma, po, 3.2 mg, 3.2 mg oral, day 21; read-out: AUC(0-τ) Geometric mean (%CV)
recordedMetric: AUC (ng·h/mL)
Kindly answer with a numeric value in ng·h/mL, unit omitted.

Summary for this compound, Cn1c(=O)c(F)c(Nc2ccc(I)cc2F)c2c(=O)n(C[C@@H](O)CO)cnc21 : AUC is 1050

====

# protocolDescription: Plasma pharmacokinetics in patients (LC-MS/MS, noncompartmental analysis)
# Assay type: in vivo, human
# conditionDetails: human, plasma, po, 11.8 mg, 11.8 mg oral, day 21; read-out: Tmax Median (range)
recordedMetric: Tmax (h)
Kindly answer with a numeric value in h, unit omitted.

Summary for this compound, Cn1c(=O)c(F)c(Nc2ccc(I)cc2F)c2c(=O)n(C[C@@H](O)CO)cnc21 : Tmax is 4

====

# protocolDescription: Plasma pharmacokinetics in patients (LC-MS/MS, noncompartmental analysis)
# Assay type: in vivo, human
# conditionDetails: human, plasma, oral; 11.8–22 mg dose range; read-out: Terminal half-life following multiple dosing
# Excerpt: Quality controls, analyzed in duplicate over the validation range, and inter-assay precision, evaluated at each level in duplicate in six runs, met the performance and acceptance criteria. […]
recordedMetric: half-life

Summary for this molecule, Cn1c(=O)c(F)c(Nc2ccc(I)cc2F)c2c(=O)n(C[C@@H](O)CO)cnc21 : half-life is 29 to 50 h

====

# protocolDescription: Plasma pharmacokinetics in patients (LC-MS/MS, noncompartmental analysis)
# Format: in vivo, human
# conditionDetails: human, plasma, po, 16 mg, 16 mg oral, day 21; read-out: Cmax Geometric mean (%CV)
recordedMetric: Cmax
State the value with its unit after it.

Summary for this molecule, Cn1c(=O)c(F)c(Nc2ccc(I)cc2F)c2c(=O)n(C[C@@H](O)CO)cnc21 : Cmax is 151 ng/mL
